B1: library; numbered along this chain (parent)
chain: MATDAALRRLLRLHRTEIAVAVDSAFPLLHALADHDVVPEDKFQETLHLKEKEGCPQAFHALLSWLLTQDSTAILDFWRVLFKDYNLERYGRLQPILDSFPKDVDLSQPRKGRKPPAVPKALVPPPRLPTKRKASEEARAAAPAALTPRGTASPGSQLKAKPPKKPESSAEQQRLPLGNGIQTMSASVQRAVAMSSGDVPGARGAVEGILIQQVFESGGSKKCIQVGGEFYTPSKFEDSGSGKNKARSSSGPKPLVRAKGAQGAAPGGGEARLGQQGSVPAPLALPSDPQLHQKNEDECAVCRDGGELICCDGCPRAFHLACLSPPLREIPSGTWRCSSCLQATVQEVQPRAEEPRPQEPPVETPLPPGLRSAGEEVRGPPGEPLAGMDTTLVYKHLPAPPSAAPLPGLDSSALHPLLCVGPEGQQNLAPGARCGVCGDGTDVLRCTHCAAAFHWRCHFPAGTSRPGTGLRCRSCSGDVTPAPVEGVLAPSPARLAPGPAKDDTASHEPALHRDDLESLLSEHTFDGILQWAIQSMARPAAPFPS

Variants of: B1
Assay procedure: AIRE transcriptional activation functional score (insulin promoter-GFP; nonsense median 0, synonymous median 1) (normalised score); higher = higher AIRE activity (more reporter activation)
Test conditions: with insulin promoter-GFP reporter in HEK293
Value kind: AIRE transcriptional activation functional score

INSERT INTO results (variant_designation, readout_number) VALUES
  ('P116M', 1.1),
  ('F318A', 0.96),
  ('P162R', 0.224),
  ('A117Q', 1.44),
  ('T183W', 0.659),
  ('G462L', 0.83),
  ('G435D', -0.0125),
  ('K243W', 1.3),
  ('G277H', 0.919),
  ('F459R', 0.444),
  ('E353G', 0.959),
  ('Q346E', 1.18),
  ('A152C', 0.402),
  ('I309M', 0.866),
  ('A352I', 1.08),
  ('P405V', 1.21),
  ('C311K', 1.13),
  ('T16E', 1.64),
  ('P492I', 1.13),
  ('L67Q', -0.874),
  ('P361M', 1.3),
  ('S402N', 1.13),
  ('R465L', 1.01),
  ('P539R', 0.158),
  ('P254K', 0.683),
  ('P143I', 0.862);
